# Test system: GM3
# Protocol Notes: GM3 Elisa assay
# Format: cell-based
# Experimental Conditions: Table 3 (IC 50 Values); B16-FO cells; read-out: IC50_uM_Mean
# Procedure: B16-FO cells from ATCC (American Tissue Culture Collection) were grown in DMEM media (ATCC) with 10% Fetal Bovine Serum (Hyclone) and Pen/Step/Glutamine (Biowhittaker). […] The plates were washed 3 times with TBS, flicked and blotted and 100 μl of Quantablu (Pierce) was added to the wells and incubated for 1 hour then read on a Fluorometer at Ex 325 and Em 420. The data was then analyzed using standard programs.
Known IC50 of a selection of compounds

- Compound: "Cc1ccc(OCCC(=O)N[C@H](CN2CC[C@H](O)C2)[C@H](O)c2ccc(OCCCCF)cc2)cc1"
  IC50: "≤ 0.1 µM"
- Compound: "COc1ccc(C(=O)CCCCC(=O)N[C@H](CN2CCCC2)[C@H](O)c2ccc(Cl)s2)cc1"
  IC50: "0.1 to 1 µM"
- Compound: "COc1ccc(C(=O)CCCCC(=O)N(Cc2cccnc2)[C@H](CN2CCCC2)[C@H](O)c2ccc(O)cc2)cc1"
  IC50: "3 to 10 µM"
- Compound: "O=C(CCCCC(=O)C1CCOCC1)N[C@H](CN1CC[C@@H](F)C1)[C@H](O)c1ccc(OCc2ccccc2)cc1"
  IC50: "0.1 to 1 µM"
- Compound: "CCCCCCOc1ccc([C@@H](O)[C@@H](CN2CC[C@H](O)C2)NC(=O)CCCOc2ccc(OC)cc2)cc1"
  IC50: "≤ 0.1 µM"
- Compound: "COc1ccc(C(=O)CCCCC(=O)N[C@H](CN2CCCC2)[C@H](O)c2ccc3c(c2)OC(F)(F)C(F)(F)O3)cc1"
  IC50: "1 to 3 µM"
- Compound: "CCCCCCC1=CC([C@H](CN2CCCC2)[C@H](O)c2ccc3c(c2)OCCO3)NN1 (some centres unmarked)"
  IC50: "3 to 10 µM"
- Compound: "COc1ccc(C(=O)CCCC(=O)N[C@H](CN2CC[C@H](O)C2)[C@H](O)c2ccc(OC(C)C)cc2)cc1"
  IC50: "0.1 to 1 µM"
- Compound: "CCCCCCCC(=O)N[C@H](CN1CC[C@H](O)C1)[C@H](O)c1ccc2c(c1)OCCO2"
  IC50: "≤ 0.1 µM"
- Compound: "COc1ccc(C(=O)CCCCCC(=O)N[C@H](CN2CC(F)(F)C2)[C@H](O)c2ccc3c(c2)OCCO3)cc1"
  IC50: "3 to 10 µM"
- Compound: "COc1ccc(C(=O)CCCC(=O)N[C@H](CN2CCCC2)[C@H](O)c2sccc2C)cc1"
  IC50: "3 to 10 µM"
- Compound: "O=C(CCCCOC1CCOCC1)N[C@H](CN1CC[C@@H](F)C1)[C@H](O)c1ccc(OCc2ccccc2)cc1"
  IC50: "0.1 to 1 µM"
- Compound: "CCCCCCCC(=O)N[C@H](CN1CCC[C@@H]1C(F)(F)F)[C@H](O)c1ccc2c(c1)OCCO2"
  IC50: "3 to 10 µM"
- Compound: "COc1ccc(OCCC(=O)N(Cc2cccc3ccncc23)[C@H](CN2CCCC2)[C@H](O)c2ccc(O)cc2)cc1"
  IC50: "3 to 10 µM"
- Compound: "CCCCOc1ccc(CC(CN2CCCC2)NC(=O)CCCCC(=O)c2ccc(OC)cc2)cc1 (centres unmarked)"
  IC50: "1 to 3 µM"
- Compound: "CCCCCCCC(=O)N[C@H](CN1CC2CC2C1)[C@H](O)c1ccc2c(c1)OCCO2 (some centres unmarked)"
  IC50: "0.1 to 1 µM"
- Compound: "COc1ccc(OCCC(=O)N[C@H](CN2CCCC2)[C@H](O)c2ccc(C(F)(F)F)cc2)cc1"
  IC50: "3 to 10 µM"
- Compound: "CCCCN(CCCC)C[C@@H](NC(=O)CCCCCC(=O)c1ccc(OC)cc1)C(O)c1ccc2c(c1)OCCO2 (some centres unmarked)"
  IC50: "3 to 10 µM"
- Compound: "CCCCCCCC(=O)N[C@H](CN1CCCC1)[C@H](O)c1ccc2c(c1)OC(F)(F)C(F)(F)O2"
  IC50: "3 to 10 µM"
- Compound: "COc1ccc(C(=O)CCCC(=O)N[C@H](CN2CCCC2)[C@H](O)c2ccc(Cl)cc2)cc1"
  IC50: "0.1 to 1 µM"
- Compound: "COc1ccc(OCCC(=O)N[C@@H](CN2CCCC2)[C@H](O)c2ccc3c(c2)OCCO3)cc1"
  IC50: "3 to 10 µM"
- Compound: "CCCCOc1ccc([C@@H](O)[C@@H](CN2CC[C@@H](F)C2)NC(=O)CCCCCOC2CCC2)cc1"
  IC50: "0.1 to 1 µM"
- Compound: "CCCCCCCCCCCCCCCC(=O)N[C@H](CNC1CCCC1)[C@H](O)c1ccc2c(c1)OCCO2"
  IC50: "1 to 3 µM"
- Compound: "CCCCCCCC(=O)N[C@H](CN1CCCC1)[C@H](O)c1ccc(C)c(F)c1"
  IC50: "0.1 to 1 µM"
- Compound: "O=C(N[C@H](CN1CCCC1)[C@H](O)c1ccc2c(c1)OC(F)(F)O2)OCc1ccccc1"
  IC50: "3 to 10 µM"
- Compound: "COc1ccc(OCCC(=O)N(Cc2ccc(-c3noc(C)n3)cc2)[C@H](CN2CCCC2)[C@H](O)c2ccc(O)cc2)cc1"
  IC50: "3 to 10 µM"
- Compound: "O=C(CCCn1cccn1)N[C@H](CN1CCCC1)[C@H](O)c1ccc2c(c1)OCCO2"
  IC50: "1 to 3 µM"
- Compound: "COc1ccc(C(=O)CCCCC(=O)N[C@H](CN2CCCC2)[C@H](O)c2ccc(OCCOc3ccc(C#N)cc3)cc2)cc1"
  IC50: "≤ 0.1 µM"
- Compound: "COc1ccc(OCCC(=O)N[C@H](CN2[C@H](C)CC[C@H]2C)[C@H](O)c2ccc3c(c2)OCCO3)cc1"
  IC50: "3 to 10 µM"
